tgt: T1, human IGSF11 (VSIG3) expressed on cells (human, UniProt Q5DX21 23-431)
T1 sequence: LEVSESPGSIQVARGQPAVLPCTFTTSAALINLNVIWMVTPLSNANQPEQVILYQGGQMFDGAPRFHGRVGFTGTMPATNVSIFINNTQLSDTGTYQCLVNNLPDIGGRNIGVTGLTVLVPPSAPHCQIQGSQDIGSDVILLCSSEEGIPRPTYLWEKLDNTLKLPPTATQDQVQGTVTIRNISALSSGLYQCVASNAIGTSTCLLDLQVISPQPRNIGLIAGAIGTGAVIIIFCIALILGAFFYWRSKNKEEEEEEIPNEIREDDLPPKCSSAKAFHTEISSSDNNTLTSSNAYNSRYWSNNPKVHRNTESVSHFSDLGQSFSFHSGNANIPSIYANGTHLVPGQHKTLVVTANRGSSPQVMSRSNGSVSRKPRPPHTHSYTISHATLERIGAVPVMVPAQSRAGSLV
method description: FACS, M579-A2-luc cells with IGSF11 siRNA (KD, knock-down control)
recorded endpoint: % binding (FACS heat-map) (%)
API: value field is a number in %; no unit string.

Given A-026 (IgG1 format) (antibody, V domains shown, human IgG1 format) VH: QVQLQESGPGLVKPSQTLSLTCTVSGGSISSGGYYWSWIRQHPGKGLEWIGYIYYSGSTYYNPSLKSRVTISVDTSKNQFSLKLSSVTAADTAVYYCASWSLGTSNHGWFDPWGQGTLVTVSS VL: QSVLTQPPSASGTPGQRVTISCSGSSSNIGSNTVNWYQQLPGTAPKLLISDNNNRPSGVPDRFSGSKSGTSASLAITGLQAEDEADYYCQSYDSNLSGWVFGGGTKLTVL , state its recorded % binding (FACS heat-map). 2.01

Given B-002 (chain-swapped IgG1) (antibody, V domains shown, human IgG1 format; also called B2) VH: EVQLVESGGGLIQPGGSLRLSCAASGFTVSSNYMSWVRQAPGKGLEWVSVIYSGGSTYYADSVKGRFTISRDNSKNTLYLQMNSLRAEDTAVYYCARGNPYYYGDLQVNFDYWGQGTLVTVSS VL: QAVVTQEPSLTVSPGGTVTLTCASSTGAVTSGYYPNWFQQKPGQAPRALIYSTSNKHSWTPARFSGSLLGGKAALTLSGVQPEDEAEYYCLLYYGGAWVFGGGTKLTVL , state its recorded % binding (FACS heat-map). 2.77

Given A-006 (IgG1 format) (antibody, V domains shown, human IgG1 format; also called A-006-like ABP) VH: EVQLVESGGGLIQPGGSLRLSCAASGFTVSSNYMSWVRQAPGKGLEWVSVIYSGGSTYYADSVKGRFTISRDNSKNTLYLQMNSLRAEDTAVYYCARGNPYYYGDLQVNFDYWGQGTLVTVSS VL: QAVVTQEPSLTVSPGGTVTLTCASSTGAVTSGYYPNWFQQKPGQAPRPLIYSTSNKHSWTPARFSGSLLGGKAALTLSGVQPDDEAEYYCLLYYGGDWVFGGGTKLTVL , state its recorded % binding (FACS heat-map). 2.59
